These entries and their values trace back to paper PMC7539967.

- Test system: Plasmodium falciparum 3D7
- Procedure Text: In vitro growth assay and flow cytometry analysis (72 h), 3D7
- Format: cell-based
- Stated Conditions: Plasmodium falciparum, 3D7, 72 h, read-out: IC50 (µM) 3D7 strain
Please assign Criterion not met whenever IC50 is at or above 20 µM, and Criterion met whenever it is below.

Exercise: Lab note: confirm whether the reported IC50 for this molecule is below 20 µM, equality not counting. molecule: COc1ccc2[nH]cc(CCNC(=O)C3CCCCC3)c2c1 [Melatocicloexil (12)]
Solution: Criterion not met

Exercise: Lab note: confirm whether the reported IC50 for this molecule is below 20 µM, equality not counting. molecule: O=S(=O)(NCCc1c[nH]c2ccccc12)c1ccccc1 [Tripbenz (4)]
Solution: Criterion met

Exercise: Lab note: confirm whether the reported IC50 for this molecule is below 20 µM, equality not counting. molecule: COc1ccc2[nH]cc(CCNS(=O)(=O)c3ccccc3)c2c1 [Melatobenz (9)]
Solution: Criterion not met

Exercise: Lab note: confirm whether the reported IC50 for this molecule is below 20 µM, equality not counting. molecule: COc1ccc2[nH]cc(CCNC(=O)c3ccco3)c2c1 [Melatofuroila (11)]
Solution: Criterion not met

Exercise: Lab note: confirm whether the reported IC50 for this molecule is below 20 µM, equality not counting. molecule: O=C(NCCc1c[nH]c2ccccc12)c1ccc(Br)s1 [Triptiofen (6)]
Solution: Criterion met

Exercise: Lab note: confirm whether the reported IC50 for this molecule is below 20 µM, equality not counting. molecule: O=C(NCCc1c[nH]c2ccccc12)C1CCCCC1 [Tripcicloexil (8)]
Solution: Criterion not met

Exercise: Lab note: confirm whether the reported IC50 for this molecule is below 20 µM, equality not counting. molecule: O=C(NCCc1c[nH]c2ccccc12)c1ccco1 [Tripfuroila (7)]
Solution: Criterion met

----------
- System: Plasmodium falciparum 3D7
- Procedure Text: In vitro growth assay and flow cytometry analysis (72 h), 3D7
- Format: cell-based
- Stated Conditions: Plasmodium falciparum, 3D7, 72 h, read-out: IC50 3D7 strain (antimalarials)
Measured Attribute: IC50 (nM)
# unit: nM | format: bare number

Measured IC50, CCN(CC)CCCC(C)Nc1ccnc2cc(Cl)ccc12 (stereo not shown) [Chloroquine, reference compound] : 9.9
